Parameter: ED50. Scope: all listed entries.
# System: gastric acid secretion
# PROTOCOL_DETAILS: Inhibition of gastric acid secretion (Total Acid Output) in rats; antisecretory activity
# Assay type: in vivo, Female Sprague-Dawley rats
# PARTICULARS: 1 h; rat; po, one hour prior to surgery; read-out: ED50 (dose required to produce an average of 50% inhibition in Total Acid Output versus controls)
Numeric only. Scale: mg/kg

Please indicate ED50 recorded for `CCCCN=CN1CCC(C(c2ccccc2)c2ccccc2)CC1`
8.6

Indicate the recorded ED50 value for this compound: `CCCCCCCCC=CCCCCCCCCN=CN1CCC(C(c2ccccc2)c2ccccc2)CC1`
66

Source of measurements: patent US4251655A
